Values were extracted from ChEMBL document CHEMBL1955733.

Assay Comment: Clearance in Sprague-Dawley rat at 1 mg/kg, iv and 5 mg/kg, po
Format: ADME, organism-based
Test Context: in vivo
Readout Type: clearance (mL/min/kg)

Input line: Would you mind telling me what clearance value was observed for C[C@H]1CCCN1CCCOc1ccc(-c2cnn(-c3ccccn3)c(=O)c2)cc1 ?
Output line: 45

Input line: Would you mind telling me what clearance value was observed for C[C@@H]1CCCN1CCCOc1ccc(-c2cnn(-c3ccccn3)c(=O)c2)cc1 ?
Output line: 19

Input line: Would you mind telling me what clearance value was observed for O=c1cc(-c2ccc(OCCCN3CCCCCC3)cc2)cnn1-c1ccccn1 ?
Output line: 25

A: Cc1n[nH]c(=O)cc1-c1ccc(OCCCN2CCC[C@H]2C)cc1
B: O=c1cc(-c2ccc(OCCCN3CCCCC3)cc2)cnn1-c1ccccn1
Input line: Problem: Given the entries A and B , determine which has the lower reported clearance. Respond with the label that goes with your answer.
Output line: B

----------
Assay Comment: Half life in Sprague-Dawley rat at 1 mg/kg, iv and 5 mg/kg, po
Type: ADME, organism-based
Test Context: in vivo
Readout Type: half-life (h)

Input line: Would you mind telling me what half-life value was observed for Cc1n[nH]c(=O)cc1-c1ccc(OCCCN2CCCCCC2)cc1 ?
Output line: 1

Input line: Would you mind telling me what half-life value was observed for Cc1nn(C)c(=O)cc1-c1ccc(OCCCN2CCC[C@H]2C)cc1 ?
Output line: 1.2

Input line: Would you mind telling me what half-life value was observed for Cc1n[nH]c(=O)cc1-c1ccc(OCCCN2CCC[C@H]2C)cc1 ?
Output line: 1.4

Input line: Would you mind telling me what half-life value was observed for C[C@@H]1CCCN1CCCOc1ccc(-c2cnn(-c3ccccn3)c(=O)c2)cc1 ?
Output line: 1.7

Input line: Would you mind telling me what half-life value was observed for Cc1cccnc1-n1nc(C)c(-c2ccc(OCCCN3CCC[C@H]3C)cc2)cc1=O ?
Output line: 1.4

Input line: Would you mind telling me what half-life value was observed for Cc1cccnc1-n1ncc(-c2ccc(OCCCN3CCC[C@H]3C)cc2)cc1=O ?
Output line: 1.8

Input line: Would you mind telling me what half-life value was observed for Cc1nn(-c2ccccn2)c(=O)cc1-c1ccc(OCCCN2CCC[C@H]2C)cc1 ?
Output line: 1.3
